# tested_system: Gelatinase (MMP-2) (Homo sapiens)
# test_details: Gelatinase (MMP-2) inhibitory activity, fluorogenic peptide substrate cleavage
# Type: biochemical
# run_parameters: read-out: MMP02 IC50
pIC50: −log10 of the molar value.
outcome_measure: pIC50

Worked examples, 5 compounds total:
NS(=O)(=O)c1cc(C(=O)c2ccc(-c3ccc(F)cc3)cc2)ccc1Cl | 5.93
NS(=O)(=O)c1cc(C(=O)c2ccc(F)cc2)ccc1Cl | 4.84
NS(=O)(=O)c1cc(C(=O)c2ccc3ccccc3c2)ccc1Cl | 4.58
NS(=O)(=O)c1cc(C(=O)c2ccc3nc[nH]c3c2)ccc1Cl | 5.92
NS(=O)(=O)c1cc(C(=O)c2c[nH]c3ccccc23)ccc1Cl | 5.05

[A] NS(=O)(=O)c1cc(C(=O)c2ccc3cc[nH]c3c2)ccc1Cl
[B] Cc1nc2ccc(C(=O)c3ccc(Cl)c(S(N)(=O)=O)c3)cc2[nH]1
Incoming: Could you kindly indicate whether A or B has the higher pIC50 value? Write down the label attached to your selection.
Outgoing: A
(A: 6.66, B: 5.65)

* * *

# tested_system: Collagenase-3 (MMP-13) (Homo sapiens)
# test_details: Collagenase-3 (MMP-13) inhibitory activity, fluorogenic peptide substrate cleavage
# Assay type: biochemical
# run_parameters: read-out: MMP13 IC50
outcome_measure: IC50 (nM)

Worked examples, 3 molecules total:
NS(=O)(=O)c1cc(C(=O)c2ccc(-c3cccc(Br)c3)cc2)ccc1Cl | 5290
COc1cc(-c2c[nH]c3cc(C(=O)c4ccc(Cl)c(S(N)(=O)=O)c4)ccc23)c(Cl)cn1 | 100
CC(C)COc1ccc(C(=O)c2ccc(Cl)c(S(N)(=O)=O)c2)cc1 [Example 58] | 24200

[1] CCc1ccc(-c2ccc(C(=O)c3ccc(Cl)c(S(N)(=O)=O)c3)cc2)cc1
[2] NS(=O)(=O)c1cc(C(=O)c2ccc(C(=O)NCCc3ccccc3)cc2)ccc1Cl
[3] NS(=O)(=O)c1cc(C(=O)c2ccc(-c3ccc(C=O)cc3)cc2)ccc1Cl
[4] NS(=O)(=O)c1cc(C(=O)c2ccc(-c3ccccc3)cc2)ccc1Cl [Example 59]
[5] NS(=O)(=O)c1cc(C(=O)c2ccc(-c3ccc(Cl)cc3)cc2)ccc1Cl
Incoming: Sort the 5 molecules by IC50; largest first, smallest last. Please reply with the labels ordered as requested. Many thanks.
Outgoing: 2, 4, 5, 1, 3
(2: 27100 nM, 4: 2630 nM, 5: 630 nM, 1: 380 nM, 3: 130 nM)

* * *

# tested_system: Gelatinase (MMP-2) (Homo sapiens)
# Sequence (P08253 110-660): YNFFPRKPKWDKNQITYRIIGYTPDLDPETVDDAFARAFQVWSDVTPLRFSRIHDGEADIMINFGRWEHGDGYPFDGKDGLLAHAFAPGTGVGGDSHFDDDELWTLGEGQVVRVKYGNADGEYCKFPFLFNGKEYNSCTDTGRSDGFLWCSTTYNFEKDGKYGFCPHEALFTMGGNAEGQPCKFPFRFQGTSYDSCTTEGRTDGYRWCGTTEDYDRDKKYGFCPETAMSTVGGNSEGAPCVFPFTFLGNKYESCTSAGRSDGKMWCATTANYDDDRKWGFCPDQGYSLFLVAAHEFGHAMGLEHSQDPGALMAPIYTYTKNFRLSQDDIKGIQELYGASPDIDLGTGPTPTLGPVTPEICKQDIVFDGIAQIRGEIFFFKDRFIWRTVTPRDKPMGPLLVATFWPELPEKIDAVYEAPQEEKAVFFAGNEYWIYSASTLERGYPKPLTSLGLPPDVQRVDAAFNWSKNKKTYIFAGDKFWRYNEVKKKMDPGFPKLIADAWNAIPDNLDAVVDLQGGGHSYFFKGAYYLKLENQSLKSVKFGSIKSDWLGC
# test_details: Gelatinase (MMP-2) inhibitory activity, fluorogenic peptide substrate cleavage
# Format: biochemical
# run_parameters: read-out: MMP02 IC50
pIC50: −log10 of the molar value.
outcome_measure: pIC50

NS(=O)(=O)c1cc(C(=O)c2ccc3c(-c4cncnc4)c[nH]c3c2)ccc1Cl [Example 131] | 5.40

[a] CS(=O)(=O)c1cccc(-c2c[nH]c3cc(C(=O)c4ccc(Cl)c(S(N)(=O)=O)c4)ccc23)c1 [Example 123]
[b] CCCCCOc1ccc(C(=O)c2ccc(Cl)c(S(N)(=O)=O)c2)cc1 [Example 20]
[c] NS(=O)(=O)c1cc(C(=O)c2ccc(-c3ccccc3)cc2)ccc1Cl [Example 59]
Incoming: Sort the 3 compounds by pIC50; largest first, smallest last. Please reply with the labels ordered as requested. Many thanks.
Outgoing: c, a, b
(c: 5.94, a: 5.30, b: 4.96)

* * *

# tested_system: Collagenase-3 (MMP-13) (Homo sapiens)
# test_details: Collagenase-3 (MMP-13) inhibitory activity, fluorogenic peptide substrate cleavage
# Format: biochemical
# run_parameters: read-out: MMP13 IC50
pIC50: −log10 of the molar value.
outcome_measure: pIC50

Worked examples, 3 compounds total:
Cc1n[nH]c2cc(C(=O)c3ccc(Cl)c(S(N)(=O)=O)c3)ccc12 | 6.60
NS(=O)(=O)c1cc(C(=O)c2ccc3c4c([nH]c3c2)C(=O)NCC4)ccc1Cl | 5.05
NS(=O)(=O)c1cc(C(=O)c2ccc(-c3ccccc3F)cc2)ccc1Cl | 5.12

[A] Nc1cccc(-c2ccc(C(=O)c3ccc(Cl)c(S(N)(=O)=O)c3)cc2)c1
[B] NS(=O)(=O)c1cc(C(=O)c2ccc3c(-c4ccc(-c5ccccc5)cc4)c[nH]c3c2)ccc1Cl
[C] Cc1ccc(C)n1-c1ccc(C(=O)c2ccc(Cl)c(S(N)(=O)=O)c2)cc1F
[D] CN(C)c1ccc(C(=O)c2ccc(Cl)c(S(N)(=O)=O)c2)cc1
[E] CCc1cc(-c2c[nH]c3cc(C(=O)c4ccc(Cl)c(S(N)(=O)=O)c4)ccc23)ccn1
Incoming: Sort the 5 compounds by pIC50; largest first, smallest last. Please reply with the labels ordered as requested. Many thanks.
Outgoing: E, D, A, B, C
(E: 7.22, D: 6.46, A: 5.62, B: 5.00, C: 4.70)

* * *

# tested_system: Gelatinase (MMP-2) (Homo sapiens, UniProt P08253)
# test_details: Gelatinase (MMP-2) inhibitory activity, fluorogenic peptide substrate cleavage
# Format: biochemical
# run_parameters: read-out: MMP02 IC50
pIC50: −log10 of the molar value.
outcome_measure: pIC50

Cc1ccc(-c2ccc(C(=O)c3ccc(Cl)c(S(N)(=O)=O)c3)cc2)cc1 [Example 61] | 5.96

[a] COCCCc1cc(-c2c[nH]c3cc(C(=O)c4cccc(S(N)(=O)=O)c4)ccc23)ccn1 [Example 11]
[b] O=C(c1ccc(-c2cccc(CO)c2)cc1)c1ccc(Cl)c(S(=O)(=O)O)c1 [Example 71]
Incoming: Of a and b , which carries the smaller reported pIC50 figure? Write down the label attached to your selection.
Outgoing: a
(a: 5.40, b: 5.96)

[I] COc1ccc(C(=O)c2ccc(S(C)(=O)=O)c(S(N)(=O)=O)c2)cc1 [Example 9]
[II] NS(=O)(=O)c1cc(C(=O)c2ccc(-c3ccc(Cl)cc3)cc2)ccc1Cl [Example 66]
[III] NS(=O)(=O)c1cc(C(=O)c2ccc(-c3ccc4ccccc4c3)cc2)ccc1Cl [Example 38]
Incoming: Sort the 3 compounds by pIC50; largest first, smallest last. Please reply with the labels ordered as requested. Many thanks.
Outgoing: II, I, III
(II: 6.14, I: 5.53, III: 4.84)

[I] Cn1ccc2cc(C(=O)c3ccc(Cl)c(S(N)(=O)=O)c3)ccc21 [Example 114]
[II] NS(=O)(=O)c1cc(C(=O)c2ccc3c(c2)[nH]c2ccccc23)ccc1Cl [Example 102]
Incoming: Could you kindly indicate whether I or II has the higher pIC50 value? Write down the label attached to your selection.
Outgoing: II
(II: 6.00, I: 5.48)

[P] NS(=O)(=O)c1cc(C(=O)c2ccc3c(-c4ccc5[nH]ccc5c4)c[nH]c3c2)ccc1Cl [Example 129]
[Q] CN(C)CCOc1cc(-c2c[nH]c3cc(C(=O)c4ccc(Cl)c(S(N)(=O)=O)c4)ccc23)ccn1 [Example 142]
[R] NS(=O)(=O)c1cc(C(=O)c2ccc(C(=O)NCc3ccccc3)cc2)ccc1Cl [Example 35]
Incoming: Rank ascending by pIC50. Please reply with the labels ordered as requested. Many thanks.
Outgoing: R, P, Q
(R: 5.16, P: 5.53, Q: 6.70)

* * *

outcome_measure: melting point

Worked examples, 2 compounds total:
NS(=O)(=O)c1cc(C(=O)c2ccc(O)c(F)c2)ccc1Cl | 206 to 208 °C
NS(=O)(=O)c1cc(C(=O)c2ccc3c(c2)CCN3)ccc1Cl | 55 to 56 °C

Incoming: Could you tell me which melting point is on file for Cc1cccc(-c2ccc(C(=O)c3ccc(Cl)c(S(N)(=O)=O)c3)cc2)c1 ?
Outgoing: 176 to 178 °C

Incoming: NS(=O)(=O)c1cc(C(=O)c2ccc(O)cc2F)ccc1Cl , same question.
Outgoing: 183 to 185 °C

Incoming: COc1ccc(C(=O)c2ccc(Cl)c(S(N)(=O)=O)c2)cc1 , same question.
Outgoing: 156 to 158 °C
